The reported numbers originate from ChEMBL document CHEMBL3785053.

- assay details: Cytotoxicity against human FR2 cells at 50 uM after 48 hrs by MTT assay
- Format: cell-based
- assay context: read-out: GI
# inhibition at 48 h, 50 µM values compiled below
attribute measured: inhibition at 48 h, 50 µM (%)

[[record]]
record_smiles = "C[C@H]1[C@H](C)CC[C@]2(C(=O)O)CC[C@]3(C)C(=CC[C@@H]4[C@@]5(C)C/C(=C\\c6ccc7ccccc7c6)C(=O)C(C)(C)[C@@H]5CC[C@]43C)[C@H]12"
attribute_measured = "inhibition at 48 h, 50 µM"
measured = 75

[[record]]
record_smiles = "C[C@H]1[C@H](C)CC[C@]2(C(=O)O)CC[C@]3(C)C(=CC[C@@H]4[C@@]5(C)C/C(=C\\c6ccccc6)C(=O)C(C)(C)[C@@H]5CC[C@]43C)[C@H]12"
attribute_measured = "inhibition at 48 h, 50 µM"
measured = 90

[[record]]
record_smiles = "C[C@H]1[C@H](C)CC[C@]2(C(=O)O)CC[C@]3(C)C(=CC[C@@H]4[C@@]5(C)C/C(=C\\c6ccc(Cl)cc6)C(=O)C(C)(C)[C@@H]5CC[C@]43C)[C@H]12"
attribute_measured = "inhibition at 48 h, 50 µM"
measured = 99

[[record]]
record_smiles = "C[C@H]1[C@H](C)CC[C@]2(C(=O)O)CC[C@]3(C)C(=CC[C@@H]4[C@@]5(C)C/C(=C\\C=C\\c6ccccc6)C(=O)C(C)(C)[C@@H]5CC[C@]43C)[C@H]12"
attribute_measured = "inhibition at 48 h, 50 µM"
measured = 80

[[record]]
record_smiles = "C[C@H]1[C@H](C)CC[C@]2(C(=O)O)CC[C@]3(C)C(=CC[C@@H]4[C@@]5(C)C/C(=C\\c6ccc(Br)cc6)C(=O)C(C)(C)[C@@H]5CC[C@]43C)[C@H]12"
attribute_measured = "inhibition at 48 h, 50 µM"
measured = 95

[[record]]
record_smiles = "C[C@H]1[C@H](C)CC[C@]2(C(=O)O)CC[C@]3(C)C(=CC[C@@H]4[C@@]5(C)C/C(=C\\c6cccc7ccccc67)C(=O)C(C)(C)[C@@H]5CC[C@]43C)[C@H]12"
attribute_measured = "inhibition at 48 h, 50 µM"
measured = 97

[[record]]
record_smiles = "C[C@H]1[C@H](C)CC[C@]2(C(=O)O)CC[C@]3(C)C(=CC[C@@H]4[C@@]5(C)C/C(=C\\c6ccc([N+](=O)[O-])cc6)C(=O)C(C)(C)[C@@H]5CC[C@]43C)[C@H]12"
attribute_measured = "inhibition at 48 h, 50 µM"
measured = 99

[[record]]
record_smiles = "COc1cc(/C=C2\\C[C@]3(C)[C@H]4CC=C5[C@@H]6[C@@H](C)[C@H](C)CC[C@]6(C(=O)O)CC[C@@]5(C)[C@]4(C)CC[C@H]3C(C)(C)C2=O)cc(OC)c1OC"
attribute_measured = "inhibition at 48 h, 50 µM"
measured = 81

[[record]]
record_smiles = "C[C@H]1[C@H](C)CC[C@]2(C(=O)O)CC[C@]3(C)C(=CC[C@@H]4[C@@]5(C)C/C(=C\\c6cc(O)ccc6O)C(=O)C(C)(C)[C@@H]5CC[C@]43C)[C@H]12"
attribute_measured = "inhibition at 48 h, 50 µM"
measured = 91

[[record]]
record_smiles = "C[C@H]1[C@H](C)CC[C@]2(C(=O)O)CC[C@]3(C)C(=CC[C@@H]4[C@@]5(C)CCC(=O)C(C)(C)[C@@H]5CC[C@]43C)[C@H]12"
attribute_measured = "inhibition at 48 h, 50 µM"
measured = 86

[[record]]
record_smiles = "COc1cc(OC)c(OC)cc1/C=C1\\C[C@]2(C)[C@H]3CC=C4[C@@H]5[C@@H](C)[C@H](C)CC[C@]5(C(=O)O)CC[C@@]4(C)[C@]3(C)CC[C@H]2C(C)(C)C1=O"
attribute_measured = "inhibition at 48 h, 50 µM"
measured = 76

[[record]]
record_smiles = "C[C@H]1[C@H](C)CC[C@]2(C(=O)O)CC[C@]3(C)C(=CC[C@@H]4[C@@]5(C)C/C(=C\\c6cccc(Cl)c6)C(=O)C(C)(C)[C@@H]5CC[C@]43C)[C@H]12"
attribute_measured = "inhibition at 48 h, 50 µM"
measured = 80

[[record]]
record_smiles = "COc1ccccc1/C=C1\\C[C@]2(C)[C@H]3CC=C4[C@@H]5[C@@H](C)[C@H](C)CC[C@]5(C(=O)O)CC[C@@]4(C)[C@]3(C)CC[C@H]2C(C)(C)C1=O"
attribute_measured = "inhibition at 48 h, 50 µM"
measured = 85

[[record]]
record_smiles = "C[C@H]1[C@H](C)CC[C@]2(C(=O)O)CC[C@]3(C)C(=CC[C@@H]4[C@@]5(C)C/C(=C\\c6ccccc6[N+](=O)[O-])C(=O)C(C)(C)[C@@H]5CC[C@]43C)[C@H]12"
attribute_measured = "inhibition at 48 h, 50 µM"
measured = 78

[[record]]
record_smiles = "C[C@H]1[C@H](C)CC[C@]2(C(=O)O)CC[C@]3(C)C(=CC[C@@H]4[C@@]5(C)C/C(=C\\c6ccc([N+](=O)[O-])cc6[N+](=O)[O-])C(=O)C(C)(C)[C@@H]5CC[C@]43C)[C@H]12"
attribute_measured = "inhibition at 48 h, 50 µM"
measured = 95

[[record]]
record_smiles = "C[C@H]1[C@H](C)CC[C@]2(C(=O)O)CC[C@]3(C)C(=CC[C@@H]4[C@@]5(C)C/C(=C\\c6ccc(O)cc6)C(=O)C(C)(C)[C@@H]5CC[C@]43C)[C@H]12"
attribute_measured = "inhibition at 48 h, 50 µM"
measured = 90

[[record]]
record_smiles = "COc1cccc(/C=C2\\C[C@]3(C)[C@H]4CC=C5[C@@H]6[C@@H](C)[C@H](C)CC[C@]6(C(=O)O)CC[C@@]5(C)[C@]4(C)CC[C@H]3C(C)(C)C2=O)c1"
attribute_measured = "inhibition at 48 h, 50 µM"
measured = 85

[[record]]
record_smiles = "C[C@H]1[C@H](C)CC[C@]2(C(=O)O)CC[C@]3(C)C(=CC[C@@H]4[C@@]5(C)CC[C@H](O)C(C)(C)[C@@H]5CC[C@]43C)[C@H]12"
attribute_measured = "inhibition at 48 h, 50 µM"
measured = 66

